test: in vitro; design: metabolic stability in human liver microsomes, LC-MS, NADPH, 0.4 mg/mL protein; settings: liver microsomes; human liver microsomes; read-out: Protein Conc. (mg/mL): / Degradation half-life /
quantity: half-life

Which half-life reading was recorded for the compound Nc1ncnc2cc(-c3cccc(S(N)(=O)=O)c3)sc12 ?
> 4.12 h

###

assay: in vitro; set-up: metabolic stability in mouse liver microsomes, LC-MS, NADPH, 0.4 mg/mL protein; conditions: liver microsomes; mouse liver microsomes; read-out: 0.4 / CLint, in vitro / (mL/min/mg protein)
Each record here notes measured microsomal CLint.

- molecule: "COc1ccc(-n2c(C)cc(/C=C3\\SC(=Nc4ccccc4)NC3=O)c2C)cc1 [OSM-S-111]"
  quantity: "microsomal CLint"
  result: "0.0371 mL/min/mg"

Using the record for Nc1ncnc2cc(-c3cccc(S(N)(=O)=O)c3)sc12 [OSM-S-106] , report its microsomal CLint.
0.0471 mL/min/mg

###

Listing: IC50 of selected compounds
Test system: Plasmodium falciparum late stage (IV-V) gametocytes
Experiment: microbe, parasite or virus in culture
Design: species or system P. falciparum gametocytes; late stage (IV-V) gametocyte viability assay
Settings: 96 h, read-out: Late Stage Gametocyte (Avery)
Procedure: There are relatively few compounds effective against the gametocyte stage of the parasite,[12],[13] though such compounds are important in the prevention of disease transmission. Four compounds found to be active in the asexual assay were evaluated against late stage (IV–V) gametocytes. […]
// return numeric value only (unit: nM, not printed)

Below are worked cases with known answers.
- smiles.str: "COc1ccc(-n2c(C)cc(/C=C3\\SC(=Nc4ccccc4)NC3=O)c2C)cc1"
  target.under.test: "Plasmodium falciparum late stage (IV-V) gametocytes"
  IC50, nM: 686
- smiles.str: "Cc1cc(/C=C2\\S/C(=N\\c3ccccc3)NC2=O)c(C)n1-c1ccc(C(F)(F)F)cc1"
  target.under.test: "Plasmodium falciparum late stage (IV-V) gametocytes"
  IC50, nM: 4
- smiles.str: "Cc1cc(/C=C2\\S/C(=N\\c3ccccc3)NC2=O)c(C)n1-c1cc(C(F)(F)F)cc(C(F)(F)F)c1"
  target.under.test: "Plasmodium falciparum late stage (IV-V) gametocytes"
  IC50, nM: 2.6

Notebook: pull reported IC50 for Plasmodium falciparum late stage (IV-V) gametocytes, entry CC(=O)N(C1=NC(=O)/C(=C/c2cc(C)n(-c3ccc(F)cc3)c2C)S1)c1ccccc1
28

###

experiment: in vitro; design: HepG2 cytotoxicity beside the liver stage assay; conditions: human, hepg2 cells
quantity: CC50 (µM)
The answer is to be given in µM; state only the numeric part.

Tell me the measured CC50 of COc1ccc(-n2c(C)cc(/C=C3\SC(=Nc4ccccc4)NC3=O)c2C)cc1 , please.
4.39

###

Entries and their half-life
experiment: in vitro; design: metabolic stability in mouse liver microsomes, LC-MS, NADPH, 0.4 mg/mL protein; conditions: liver microsomes; mouse liver microsomes; read-out: Protein Conc. (mg/mL): / Degradation half-life /
In your response, put the unit directly after the numeric value.

- compound: "Nc1ncnc2cc(-c3cccc(S(N)(=O)=O)c3)sc12 [OSM-S-106]"
  result: "36.8 min"

Let us move to another entry and its half-life.
Report half-life for COc1ccc(-n2c(C)cc(/C=C3\SC(=Nc4ccccc4)NC3=O)c2C)cc1 [OSM-S-111] please.
46.6 min

###

tested on: Plasmodium falciparum Pfal (K1); construct: K1; experiment: microbe, parasite or virus in culture; parameters: species or system erythrocytes; P. falciparum asexual blood-stage whole-cell growth inhibition, IC50; conditions: K1, Erythrocyte, lab named in column head, read-out: Pfal (K1) IC50 (Batra)
IC50: recorded values

- molecule: "Cc1cc(/C=C2\\SC(=Nc3ccccc3)N(c3ccccc3)C2=O)c(C)n1-c1cccc(F)c1 [OSM-L-1]"
  IC50: "> 5000 nM"

Now examine the next entry.
Fill blank: measured IC50 of the molecule Cc1cc(C(=O)OCC(N)=O)c(C)n1-c1ccc(F)cc1 [OSM-S-5] is ____.
641 nM

###

system: Plasmodium berghei Pb Liver Stage; assay: microbe, parasite or virus in culture; set-up: liver stage assay, sporozoites in liver cells; conditions: HepG2
quantity: IC50

So what IC50 did COc1ccc(-n2c(C)cc(/C=C3\SC(=Nc4ccccc4)NC3=O)c2C)cc1 get with Plasmodium berghei Pb Liver Stage?
345 nM
